Where do these numbers come from? They come from the nanobody polyreactivity screen of Harvey et al. (2022).

# procedure details: yeast display, Sf9 membrane polyspecificity reagent, FACS + sequencing; frameworks hold sequencing errors
test readout: polyreactivity (PSR sort gate)

{"biopolymer sequence": "QVQLVESGGGLVQAGGSLRLSCAASGRILGQYAMGWYRQAPGKERELVAAISFRGGRTYYADSVKGRFTISRDNAKNTVYLQMNSLKPEDTAVYYCATDGWRSPYYRNYRYFYTEYYYWGQGTQVTVSS", "result": "high polyreactivity"}
{"biopolymer sequence": "QVQLVESGGGLVQAGGSLRLSCAASGRTFKRNAMGWYRQAPGKEREFVAVITGSGGSTYYADSVKGRFTISRDNAKNTVYLQMNSLKPEDTAVYYCAAQATRYGQYTYDYWGQGTQVTVSS", "result": "high polyreactivity"}
{"biopolymer sequence": "QVQLVESGGGLGQAGGSLRLSCAASGRIFSYNSMGWYRPATGKERELVAAISTSGGSTYYADSVKGRFTISRDYAKNTVYLQLISLKPEDTAVYYCNARAPFSSAQPTFLIDDGYHWGQGTQETVSS", "result": "low polyreactivity"}
{"biopolymer sequence": "QVQLVESGGGLVQAGGSLRLSCAASGRIFWTNAMGWYRQAPGKERELVAAISYNGASTFYADSVKGRFTISRDNAKNTVYLQMNSLKPEDTAVYYCNAYSSRYRYNYWGQGTQVTVSS", "result": "high polyreactivity"}
{"biopolymer sequence": "QVQLVESGGGLVQAGGSLRLSCAASGFTFKYYAMGWYRQAPGKERELVAVINQSGGSTSYADSVKGRFTISRDNAKNTVYLQMNSLKPEDTAVYYCAALVGLFWLWNYDYWGQGTQVTVSS", "result": "high polyreactivity"}
{"biopolymer sequence": "QVQLVESGGGLVQAGGSLRLSCAASGIIFFYYVMGWYRQAPGKERELVAAISSDGSSTYYADSVKGRFTISRDNAKNTVNLQMNSQKPEDTAVYYCAAELILYPYDFNFWGQGTQVTVSS", "result": "high polyreactivity"}
{"biopolymer sequence": "QVQLVESGGGLVQAGGSLRLSCAASGSIFGYYVMGWDRQAPGKERELVAAITRSGSTYYADSVKGRFTISRDNAKNTVYLQMNSLKPEDTAVYYCAADGSYYWYPHTTYDYWGQGTQVTVSS", "result": "low polyreactivity"}
{"biopolymer sequence": "QVQLVESGGGLVQAGGSLRLSCAASGSTFTRNAMGWYRQAPGKEWELVAAITSSGGSTYYAASVKGRFTISRDNAKNTVYLQMNSLKPEDNAVYYCAAYPHRPRDPELDHWGQGTQVTVSS", "result": "low polyreactivity"}
{"biopolymer sequence": "QVQLVESAGGLVQAGGSLRLSCAASGITFRYYAMGWYRQAPGKERELVATITRGGSTYYADSVKGRFTISRDNAKNTVYLQMNSLKPEDTAVYYCAARSYVPSYDYWGQGTQVTVSS", "result": "high polyreactivity"}
{"biopolymer sequence": "QDQLVESVGGLDQAGGSLRLSCAASGLIFQSYVMGWYRQAPGKERELVAAISSSVGSTHYADSVKGRFTISRDNAKNTVYLQMNSLKPEDTAVYYCAVEDYYADSGVEYDYWGQGTQVTVSS", "result": "low polyreactivity"}
{"biopolymer sequence": "QVQLVESGGGLVQAGGSLRLSCAASGSILGSNAMGWYRQAPGKERELVAAITSSGGSTYYADSVKGRFTISRDNAKNTVYLQMNSLKPEDTAVYYCAARTNYDSTRGEYDYWGQGTQVTVSS", "result": "low polyreactivity"}
{"biopolymer sequence": "QVQLVESGGGLVQAGGSLRLSCAASGGIFRGYAMGWYRQAPGKERELVAAITKRGGRTYYADSVKGRFTISRDNAKNTVYLQMNSLNPEDTAVFYCAADYYAAYHLPDLDYDYWGQGTQVTVSS", "result": "high polyreactivity"}
{"biopolymer sequence": "QVQLVESGGGLVQAGGSLRLSCAASGSTFLVYAMGWYRQAPGKERELVAAIRSGGRTYYADSVKGRFTISRDNAKNTVYLQMNSLKPEDTAVYYCAADVLLRYGYRGYDYWGQGTQVTVSS", "result": "low polyreactivity"}
{"biopolymer sequence": "QVQLVESGGGLVQAGGSLRLSCAASGSTFNAYAMGWYRQAPGKERELVAAISYTGGSTYYADSVKGRFTISRDNAKNTVYLQMNSLKPDDTAVYYCARRQARKFYYWGQGTQVTVSS", "result": "high polyreactivity"}
{"biopolymer sequence": "QVQLVESAGGLVQAGVSRRLSFAASGSIFGDYAMGWYRQAPGTERELVATITWIGGSTYYADSVKGRFTISRDNAKNTVYLQMNSLIPEDTAVYYCAATKYVDVKYYYWGQGTQVTLSS", "result": "low polyreactivity"}
{"biopolymer sequence": "QVQLVESGGGLDQAGGSLRLSCAASGITFYDYAMGWYRQAPGKEREFVASITSSGGSTYYADSVKGRFTISRDNAKTTVYLQMNSLKPQDPAVYYCAARGYNPYGRKVGYWGQGTQVTVSS", "result": "high polyreactivity"}
{"biopolymer sequence": "QVQLVESGGGLVQAGGSLRLSCAASGRTFHYNAMGWYRQAPGKERELVAAISFNGGGTYYADSVKGRFTISRDNAKNTVYLQMNSLKPEDTAVYYCATDVPSRYDYWGQGTQVTVSS", "result": "low polyreactivity"}
{"biopolymer sequence": "QVQLVESGGGLVQAGGSLRLSCAASGSTLRYYGMGWYRQAPGKEREFVATLSWGGGSTYYADSVKGRFTISRDNAKNTVYLQINSLKPEDTAVYYCAASWNGGLFQTKYGYWGQGTQVTVSS", "result": "high polyreactivity"}
{"biopolymer sequence": "QVQLVESGGGLDQAGGSLRLICAASGIIFASNAMGWYRQAPGKERELVATITGSVAGTYYADSVKGRFTISRDNAKPTVYLQMNSLKPEDTAVYDCAAKRGWNVAGYDYWGQRTQVTVSS", "result": "low polyreactivity"}
{"biopolymer sequence": "QVQLVDSGGGLVQAGGSLRLSCAASGFNFVFNAMGWYRQAPGKERELVAAINGGDITNYADSVKGRFTISRDNAKNTVYLQMNSLKPEDTAVYYCAADGEYSLWTGYDYDYWGQGTQVTVSS", "result": "low polyreactivity"}
{"biopolymer sequence": "QVQLVESGGGLVQAGGSLRLSCAASGSIFDRYAMGWYRQAPGKERELVASISNRGGRTFYADSVKGRFTISRDNAKNTVYLQMNSLKPEDTAVYYCARKTYYTGDFLGREYGYWGQGTQVTVSS", "result": "low polyreactivity"}

* * *

# procedure details: yeast display, Sf9 membrane polyspecificity reagent, FACS + sequencing; frameworks hold sequencing errors

{"biopolymer sequence": "QVQLVESGGGLVQAGGSLRLSCAASGFIFGSNVMGWYRQAPGKERELVAAITSGSRTYYADSVKGRFTISRDNAKNTVYLQMNSLKPEDTAVYYCAKRNPIKYYGGGYWGQGTQVTVSS", "polyreactivity (PSR sort gate)": "high polyreactivity"}
{"biopolymer sequence": "QVQLVESGGGLVQAGGSLRLSCAASGFIFASYAMGWYRQAPGKERELVAAISSSGGRTYYADSVKGRFTISRDNAKNTVYLQMNSLKPEDTAVYYCAAPRIYIPAEYYSWGQGTQVTVSS", "polyreactivity (PSR sort gate)": "high polyreactivity"}
{"biopolymer sequence": "QVQLVESGGGLVQAGGSLRLSCAASGRTFAFNAMGWYRQAPGKERELVATISWSGGSTYYADSVKGRFTISRDNAKNTVYLQMNSLKPEDTAVYYCAKVVRGSNDYDYWGQGTQVTVSS", "polyreactivity (PSR sort gate)": "high polyreactivity"}
{"biopolymer sequence": "QVQLVESGGGLVQAGGSLRLSCAASGRIFGIYAMGWYRQAPRKERELVASITDGTITNYADSVKGRFTISRDNAKNTVYLQMNSLKPEDTAVYYCAAGTQAHAYVVRPIEMDYWGQGTQVTVSS", "polyreactivity (PSR sort gate)": "low polyreactivity"}
{"biopolymer sequence": "QVQLVESGGGLDQAGGSLRLSCAASGRIFDSNAMGWYRQAPGKERELVAAISYDGGSTYYADSVKGRFTISRDNAKNTVYLQMNSLKPEDTAVYYCAGDDGWYYYYGYDYWGQGTQVTVSS", "polyreactivity (PSR sort gate)": "low polyreactivity"}

* * *

# procedure details: yeast display, Sf9 membrane polyspecificity reagent, FACS + sequencing; frameworks hold sequencing errors

{"biopolymer sequence": "QVQPVESGGGLVQAGGSLRLSCAASGRTFWYYTMGWYRQAPGKERELVAAITSVGSTYYADSVKGRFTISRDNAKNTVYLQMNSLKPEDTAVYYCAKLYSYTHQSFDHWGQGTQVTVSS", "polyreactivity (PSR sort gate)": "high polyreactivity"}
{"biopolymer sequence": "QVQLVESGGGLVQAGGSLRLSCAASGYILPKNTMGWYRQAPGKERELVAAISWSGGSTFYADSVKGRFTISRDNAKNTVYLQMNSLKPEDTAVYYCAADRSWSWYYRYDYWGQGTQVTVSS", "polyreactivity (PSR sort gate)": "low polyreactivity"}
{"biopolymer sequence": "QVQLVESGGGLVKAGGSLRLSCAASGSTFPLYAMGWYRQAPGKEREFVAAIRWIGGSTYYADSVKGRFTISRDNAKNTVYLQMNSLKPEDTAVYFCAADYVVSAFDYWGQGTQVTVSS", "polyreactivity (PSR sort gate)": "low polyreactivity"}
{"biopolymer sequence": "QVQLVESGGGLVQAGGSLRLSCAASGRTFAGYAMGWYRQAPGKERELVAAISGSGGRTYYADSVKGRFTISRDNAKNTVYLQMNSLKPEDTAVYYCAASQRVYIARSDYWGQGTQATVSS", "polyreactivity (PSR sort gate)": "high polyreactivity"}
{"biopolymer sequence": "QVQIVETGGGLVQAGGSLRLSCEASGSTFRNYAMGWYRQATGKERELDAAISSGGSTNYADSVKGRFTISRDNAKNTVFLQMNSLKPEYTAVYYCAAKAWYYPGSRIYYQYYYWGQGTQVTVSS", "polyreactivity (PSR sort gate)": "high polyreactivity"}
